Source of measurements: ChEMBL document CHEMBL5223082

# Test system: Enterococcus
# MEASUREMENT_DESCRIPTION: Potency index, ratio of Vancomycin MIC to test compound MIC for antibacterial activity against Vancomycin-resistant Enterococci NR30903
# Assay type: functional, NR 30903
Assign Ratio to each entry below.
Response field accepts a number only; no unit should be typed.

Input: Item CCCCCCCCNC(=O)c1ccc(CN[C@@]2(C)C[C@H](O[C@H]3[C@H](Oc4c5cc6cc4Oc4ccc(cc4Cl)[C@@H](O)[C@@H](NC(=O)[C@@H](CC(C)C)NC)C(=O)N[C@@H](CC(N)=O)C(=O)N[C@H]6C(=O)N[C@H]4C(=O)N[C@H](C(=O)N[C@H](C(=O)O)c6cc(O)cc(O)c6-c6cc4ccc6O)[C@H](O)c4ccc(c(Cl)c4)O5)O[C@H](CO)[C@@H](O)[C@@H]3O)O[C@@H](C)[C@H]2O)cc1 has what recorded Ratio?
Output: 166

Input: Item CCCCCCNC(=O)C[N+](C)(C)CCCNC(=O)c1ccc(CN[C@@]2(C)C[C@H](O[C@H]3[C@H](Oc4c5cc6cc4Oc4ccc(cc4Cl)[C@@H](O)[C@@H](NC(=O)[C@@H](CC(C)C)NC)C(=O)N[C@@H](CC(N)=O)C(=O)N[C@H]6C(=O)N[C@H]4C(=O)N[C@H](C(=O)N[C@H](C(=O)O)c6cc(O)cc(O)c6-c6cc4ccc6O)[C@H](O)c4ccc(c(Cl)c4)O5)O[C@H](CO)[C@@H](O)[C@@H]3O)O[C@@H](C)[C@H]2O)cc1 has what recorded Ratio?
Output: 10

Input: Item CCCCCCCCCCNC(=O)c1ccc(CN[C@@]2(C)C[C@H](O[C@H]3[C@H](Oc4c5cc6cc4Oc4ccc(cc4Cl)[C@@H](O)[C@@H](NC(=O)[C@@H](CC(C)C)NC)C(=O)N[C@@H](CC(N)=O)C(=O)N[C@H]6C(=O)N[C@H]4C(=O)N[C@H](C(=O)N[C@H](C(=O)O)c6cc(O)cc(O)c6-c6cc4ccc6O)[C@H](O)c4ccc(c(Cl)c4)O5)O[C@H](CO)[C@@H](O)[C@@H]3O)O[C@@H](C)[C@H]2O)cc1 has what recorded Ratio?
Output: 670

Input: Item CCCCCCCCNC(=O)C[N+](C)(C)CCCNC(=O)c1ccc(CN[C@@]2(C)C[C@H](O[C@H]3[C@H](Oc4c5cc6cc4Oc4ccc(cc4Cl)[C@@H](O)[C@@H](NC(=O)[C@@H](CC(C)C)NC)C(=O)N[C@@H](CC(N)=O)C(=O)N[C@H]6C(=O)N[C@H]4C(=O)N[C@H](C(=O)N[C@H](C(=O)O)c6cc(O)cc(O)c6-c6cc4ccc6O)[C@H](O)c4ccc(c(Cl)c4)O5)O[C@H](CO)[C@@H](O)[C@@H]3O)O[C@@H](C)[C@H]2O)cc1 has what recorded Ratio?
Output: 750

Input: Item CCCCCCCCCCCCNC(=O)C[N+](C)(C)CCCNC(=O)c1ccc(CN[C@@]2(C)C[C@H](O[C@H]3[C@H](Oc4c5cc6cc4Oc4ccc(cc4Cl)[C@@H](O)[C@@H](NC(=O)[C@@H](CC(C)C)NC)C(=O)N[C@@H](CC(N)=O)C(=O)N[C@H]6C(=O)N[C@H]4C(=O)N[C@H](C(=O)N[C@H](C(=O)O)c6cc(O)cc(O)c6-c6cc4ccc6O)[C@H](O)c4ccc(c(Cl)c4)O5)O[C@H](CO)[C@@H](O)[C@@H]3O)O[C@@H](C)[C@H]2O)cc1 has what recorded Ratio?
Output: 780
